test system: SR; assay: CCK-8 tumor cell proliferation, SR; assay type: cell-based, Human; conditions: Homo sapiens; Table 15, ALK inhibitor based; SR; read-out: IC50 inhibiting proliferation of tumor cells, SR
// reported IC50 per item

COc1cc(N2CCC(N(C)Cc3cc4c(cc3F)C(=O)N(C3CCC(=O)NC3=O)C4)CC2)ccc1Nc1ncc(Cl)c(Nc2ccccc2P(C)(C)=O)n1 (stereo not drawn) [GT-03601] ... < 50 nM
Cc1cc(Nc2ncc(Cl)c(Nc3ccccc3S(=O)(=O)C(C)C)n2)c(OC(C)C)cc1N1CCC(N(C)Cc2ccc3c(c2)CN(C2CCC(=O)NC2=O)C3=O)CC1 (stereo not drawn) [GT-03530] ... < 50 nM
CCc1cc2c(cc1N1CCC(N3CCN(Cc4cc(F)c5c(c4)CN(C4CCC(=O)NC4=O)C5=O)CC3)CC1)C(C)(C)c1[nH]c3cc(C#N)ccc3c1C2=O (stereo not drawn) [GT-03760] ... < 50 nM
CCc1cc2c(cc1N1CCC(N3CCOCC3)CC1)C(C)(C)c1[nH]c3cc(C#N)ccc3c1C2=O [alectinib, reference compound] ... < 50 nM
CCc1cc2c(cc1N1CCC(N3CCN(Cc4cc5c(cc4F)C(=O)N(C4CCC(=O)NC4=O)C5)CC3)CC1)C(C)(C)c1[nH]c3cc(C#N)ccc3c1C2=O (stereo not drawn) [GT-03759] ... < 50 nM
COc1cc(N2CCN(Cc3ccc4c(c3)C(=O)N(C3CCC(=O)NC3=O)C4=O)CC2)ccc1Nc1ncc(Cl)c(Nc2ccccc2P(C)(C)=O)n1 (stereo not drawn) [GT-03780] ... 100 to 500 nM
CCc1cc2c(cc1N1CCC(N3CCN(Cc4ccc5c(c4)CN(C4CCC(=O)NC4=O)C5=O)CC3)CC1)C(C)(C)c1[nH]c3cc(C#N)ccc3c1C2=O (stereo not drawn) [GT-02972] ... < 50 nM
COc1cc(N2CCN(Cc3ccc4c(c3)CN(C3CCC(=O)NC3=O)C4=O)CC2)ccc1Nc1ncc(Cl)c(Nc2ccccc2P(C)(C)=O)n1 (stereo not drawn) [GT-03775] ... < 50 nM
COc1cc(N2CCN(Cc3ccc4c(c3F)CN(C3CCC(=O)NC3=O)C4=O)CC2)ccc1Nc1ncc(Cl)c(Nc2ccccc2P(C)(C)=O)n1 (stereo not drawn) [GT-03776] ... < 50 nM
CCc1cc2c(cc1N1CCC(N3CCN(Cc4ccc5c(c4)C(=O)N(C4CCC(=O)NC4=O)C5=O)CC3)CC1)C(C)(C)c1[nH]c3cc(C#N)ccc3c1C2=O (stereo not drawn) [GT-03761] ... < 50 nM

Qu. # assay system SR: give IC50 of COc1cc(N2CCN(Cc3cc4c(cc3F)C(=O)N(C3CCC(=O)NC3=O)C4)CC2)ccc1Nc1ncc(Cl)c(Nc2ccccc2P(C)(C)=O)n1 (stereo not drawn) [GT-03777]
Ans. < 50 nM

Qu. # assay system SR: give IC50 of COc1cc(N2CCC(N(C)Cc3ccc4c(c3)C(=O)N(C3CCC(=O)NC3=O)C4=O)CC2)ccc1Nc1ncc(Cl)c(Nc2ccccc2P(C)(C)=O)n1 (stereo not drawn) [GT-03602]
Ans. 50 to 100 nM

====

// reported IC50 per item
test system: MGC-803; test: CCK-8 tumor cell proliferation, MGC-803; settings: Homo sapiens, Table 18, FAK inhibitor based, MGC803, read-out: IC50 inhibiting proliferation of tumor cells, MGC803

CNC(=O)c1ccccc1Nc1cc(Nc2cc(C)c(C3CCN(Cc4cc5c(cc4F)C(=O)N(C4CCC(=O)NC4=O)C5)CC3)cc2OC(C)C)ncc1C(F)(F)F (stereo not shown) ... 50 to 100 nM
CNC(=O)c1ccccc1Nc1cc(Nc2cc(C)c(N3CCC(N(C)Cc4ccc5c(c4)CN(C4CCC(=O)NC4=O)C5=O)CC3)cc2OC(C)C)ncc1C(F)(F)F (stereo not shown) ... < 50 nM
CNC(=O)c1ccccc1Nc1cc(Nc2cc(C)c(N3CCC(N(C)Cc4ccc5c(c4F)CN(C4CCC(=O)NC4=O)C5=O)CC3)cc2OC(C)C)ncc1C(F)(F)F (stereo not shown) ... 50 to 100 nM

Here is another compound to look at.
Qu. Using the record for CNC(=O)c1ccccc1Nc1cc(Nc2cc(C)c(C3CCN(Cc4ccc5c(c4F)CN(C4CCC(=O)NC4=O)C5=O)CC3)cc2OC(C)C)ncc1C(F)(F)F (stereo not shown) , state its measured IC50.
Ans. 100 to 500 nM

====

tested on: MDA-MB-231; assay: CCK-8 tumor cell proliferation, MDA-MB-231; format: cell-based, Human; conditions: Homo sapiens; Table 18, FAK inhibitor based; MDA-MB-231; read-out: IC50 inhibiting proliferation of tumor cells, MDA-MB-231
Reported Metric: IC50

Known IC50 results, listed for orientation:
CNC(=O)c1ccccc1Nc1cc(Nc2ccc(N3CCN(Cc4ccc5c(c4)CN(C4CCC(=O)NC4=O)C5=O)CC3)cc2OC)ncc1C(F)(F)F (centres unmarked) ... 50 to 100 nM
CNC(=O)c1ccccc1Nc1cc(Nc2ccc(N3CCC(N(C)Cc4ccc5c(c4F)CN(C4CCC(=O)NC4=O)C5=O)CC3)cc2OC)ncc1C(F)(F)F (centres unmarked) ... < 50 nM
CNC(=O)c1ccccc1Nc1cc(Nc2ccc(N3CCC(N(C)Cc4cc(F)c5c(c4)CN(C4CCC(=O)NC4=O)C5=O)CC3)cc2OC)ncc1C(F)(F)F (centres unmarked) ... 50 to 100 nM

Qu. Using the record for CNC(=O)c1ccccc1Nc1cc(Nc2ccc(N3CCC(N4CCN(Cc5cc6c(cc5F)C(=O)N(C5CCC(=O)NC5=O)C6)CC4)CC3)cc2OC)ncc1C(F)(F)F (centres unmarked) , state its measured IC50.
Ans. 500 to 1000 nM

Qu. Using the record for CNC(=O)c1ccccc1Nc1cc(Nc2ccc(N3CCC(NCc4ccc5c(c4)CN(C4CCC(=O)NC4=O)C5=O)CC3)cc2OC)ncc1C(F)(F)F (centres unmarked) , state its measured IC50.
Ans. < 50 nM
